# Test system: Acinetobacter baumannii
# EXPERIMENT_DESCRIPTION: Antibiofilm activity against Acinetobacter baumannii 5015 incubated for 24 hrs under shaking condition by turbidometric method
# Assay type: functional
Where a SMILES comes first, the peptide text is derived from it. Bridges are numbered along the chain shown (N, C = ends).
EXPERIMENTAL_ENDPOINT: MBEC (µM)
State just the number; it will be interpreted in µM.

Below, each entry is followed by its recorded MBEC result.
| COMPOUND | MEASURED_TARGET | MBEC [µM] |
| --- | --- | --- |
| CC[C@H](C)[C@@H]1NC(=O)[C@H](CCCNC(=N)N)NC(=O)[C@H](C(C)C)NC(=O)[C@H](C)NC(=O)[C@H](C(C)C)NC(=O)[C@H]([C@@H](C)CC)NC(=O)[C@H](CC(C)C)NC(=O)[C@H](CCCNC(=N)N)NC(=O)[C@H](C(C)C)NC(=O)CC[C@@H](C(N)=O)NC(=O)[C@H](CCCNC(=N)N)NC(=O)[C@H](CCCNC(=N)N)NC(=O)[C@H](Cc2c[nH]c3ccccc23)NC1=O (VRLIVAVRIWRRE-NH2; lactam N-13) | Acinetobacter baumannii | 15.1 |
| CCCCCCCCCCCCCCCC[N+](C)(C)Cc1ccccc1.[Cl-] [CETALKONIUM CHLORIDE] | Acinetobacter baumannii | 40.3 |

Attention now shifts to the item below.
For reference, reported MBEC for CC[C@H](C)[C@@H]1NC(=O)[C@H](CCCNC(=N)N)NC(=O)[C@H](C(C)C)NC(=O)[C@H](C)NC(=O)[C@H](C(C)C)NC(=O)[C@H]([C@@H](C)CC)NC(=O)[C@H](CC(C)C)NC(=O)[C@H](CCCNC(=N)N)NC(=O)[C@H](C(C)C)NC(=O)[C@@H](N)CSSC[C@@H](C(N)=O)NC(=O)[C@H](CCCNC(=N)N)NC(=O)[C@H](CCCNC(=N)N)NC(=O)[C@H](Cc2c[nH]c3ccccc23)NC1=O (H-CVRLIVAVRIWRRC-NH2; disulfide 1-14) stands at 57.4
